assay: chemical genetic growth profiling, strain panel (AID 1159580);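 further: tested at 20 µM; growth read once vehicle control cultures reached saturation at 30 °C; 1 = growth at the plate median or of vehicle wells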; conditions: S. cerevisiae deletion strains, growth OD, locus YKL068W, hits give low values
The whole screen tested about 5,500 compounds, of which about 2,000 (36%) were called active. Not shown: some 18% with an inconclusive outcome. This is one part of the list.
// reported normalized growth per item

- C[N+](C)(C)CCOP(=O)([O-])OP(=O)(O)OC[C@H]1OC(n2ccc(N)nc2=O)[C@H](O)[C@@H]1O (some centres not stated): 0.991 (inactive)
- C[C@@H]1O[C@@H](O[C@H]2[C@@H](Oc3cc(O)c4c(c3)O[C@H](c3ccc(O)cc3)CC4=O)O[C@H](CO)[C@@H](O)[C@@H]2O)[C@H](O)[C@H](O)[C@H]1O: 1 (inactive)
- OCC(O)Cc1ccc2c(c1)OCO2 (configuration not stated): 1 (inactive)
- NC(N)=Nc1nc(CSCCC(N)=NS(N)(=O)=O)cs1: 1.01 (inactive)
- COC1C(O)C(O)C(O)[C@@H](O)C1O (some centres not stated): 1.01 (inactive)
- O=[N+]([O-])O[C@H]1CO[C@H]2[C@@H]1OC[C@H]2O[N+](=O)[O-]: 1.01 (inactive)

The value of normalized growth measured for the compound CCc1cccc(C)c1N(C(=O)CCl)C(C)COC (configuration not stated) turned out to be 1.01 (inactive)

Recorded result, O=C(/C=C/C=C/c1ccc2c(c1)OCO2)N1CCCCC1 , normalized growth: 0.966 (inactive)

Memo: CN=C(NC#N)NCCSCc1nc[nH]c1C , reported normalized growth: 0.992 (inactive)

normalized growth recorded for this compound, Cc1ccc(C(=O)C(C)CN2CCCCC2)cc1 (configuration not stated) , is 1.01 (inactive)

* * *

assay: chemical genetic growth profiling, strain panel (AID 1159580); settings: S. cerevisiae deletion strains, growth OD, locus YAL013W, strain DEP1, hits give low values
The campaign covered roughly 5,500 compounds. About 2,000 (36%) were called active. About 18% were inconclusive and are not listed. The list shows a part of the results.
Field 'label' (enum: 1.0 / 0.0). Set to 1.0 when normalized growth is strictly under 1; else 0.0.

Some solved entries appear below for comparison.
- CCCCCCCCCCCCC[N+](C)(C)Cc1ccccc1: 1.0
- CN(C)C=Nc1nc2c(s1)CCc1ccccc1-2: 1.0

Shift focus to the following entry.
Q: Does the reported normalized growth of COc1ccc([C@@H]2CC(=O)c3c(O)cc(O)cc3O2)cc1O stay below 1?
Ans: 0.0

* * *

assay: chemical genetic growth profiling, strain panel (AID 1159580); details: S. cerevisiae deletion strains, growth OD, locus YHR030C, strain SLT2, hits give low values
Screen size: about 5,500 compounds; about 2,000 (36%) were called active. Inconclusive results (about 18%) are left out. Some of the results follow.
Lab note: cut-off is 1. Strictly less in normalized growth is t. Exactly 1 or more is f.

Here are 4 compounds together with their reported answers.
* COc1ccccc1C1CCN(C(=O)c2ccc(F)cc2)CC1 | t
* CN(C)/C=C1\C(=O)c2ccccc2N(C)S1(=O)=O | t
* O=C(Nc1cc(Cl)cc(Cl)c1)Nc1cc(-c2ccco2)[nH]n1 | t
* CC(=O)OCC1=C(C(=O)O)N2C(=O)[C@@H](N)C2SC1 (some centres not stated) | f

Q: In plain terms, does Nc1cc(-c2ccc(Cl)cc2)nc(N)n1 come in under 1 for normalized growth?
Ans: t

Q: Hello, I'm reviewing records and need to know if normalized growth of CC(=O)O[C@]1(C(C)=O)CCC2C3C=C(Cl)C4=CC(=O)CC[C@]4(C)C3CC[C@@]21C (some centres not stated) is below 1. Could you check?
Ans: f

Q: For Cc1cc(NC(=O)C(Cl)(Cl)Cl)n(-c2ccccc2)n1 , is the recorded normalized growth below the cut-off of 1?
Ans: t

Q: Strictly below 1: is that where normalized growth of O=C1CC(c2ccc(O)cc2)Oc2ccccc21 (configuration not stated) sits?
Ans: t

Q: Is normalized growth strictly under 1 for the entry COc1ccc(C(C)=O)c(O)c1 ?
Ans: t

Q: Is the reported normalized growth for CC(C)[C@H](N)C(=O)OCCOCn1cnc2c(=O)[nH]c(N)nc21 strictly below 1?
Ans: f

Q: Record CC1(C)/C(=N/OC(=O)c2cccc(C(F)(F)F)c2)[C@]2(C)CCC1C2 : is its normalized growth strictly below 1?
Ans: t

Q: Lab note: confirm whether the reported normalized growth for this compound is below 1, equality not counting. compound: O=C(O)CSCCOc1ccccc1
Ans: f

* * *

normalized growth by entry:
test: chemical genetic growth profiling, strain panel (AID 1159580);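 further: tested at 20 µM; growth read once vehicle control cultures reached saturation at 30 °C; 1 = growth at the plate median or of vehicle wells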; conditions: S. cerevisiae deletion strains, growth OD, locus YEL061C, strain CIN8, hits give low values
In all, about 5,500 compounds went through this assay and about 2,000 (36%) were called active. Not shown: some 18% with an inconclusive outcome. The list shows a part of the results.

* FC(F)(F)c1ccnc(-n2ccc(-c3cccs3)n2)n1 | 0.946 (inactive)
* CC(C)N(C(=O)CCl)c1ccccc1 | 1.02 (inactive)
* CN1C(=O)CN=C(c2ccccc2)c2ccccc21 | 1 (inactive)
* c1ccc(CC2=NCCN2)cc1 | 0.987 (inactive)

Given item CCc1nc(N)nc(N)c1-c1ccc(Cl)cc1 , the value recorded as its normalized growth is 1.01 (inactive)

Record O=C(Nc1ccccc1C(=O)NC1CCCCNC1=O)c1cccs1 (stereo not drawn) , field normalized growth: 1.01 (inactive)

get_value(item= Nc1cc(-c2ccc(Cl)cc2)nc(N)n1 , readout=normalized growth) returns 0.995 (inactive)

# compound CC(=O)OCc1ccc(/C=C(\C#N)S(=O)(=O)c2ccc(Cl)cc2)o1 ; its normalized growth = 1 (inactive)

* * *

test: chemical genetic growth profiling, strain panel (AID 1159580);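 further: tested at 20 µM; growth read once vehicle control cultures reached saturation at 30 °C; 1 = growth at the plate median or of vehicle wells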; conditions: S. cerevisiae deletion strains, growth OD, locus YDR195W, strain ref2
The campaign covered roughly 5,500 compounds. About 2,000 (36%) were called active. Not shown: some 18% with an inconclusive outcome. No stated cut-off is given here; in the data, active means normalized growth mostly below about 0.91 (no sharp cut-off); inconclusive means no clear call, values can overlap the other calls; inactive means mostly above about 0.92. The list shows a part of the results.
Reply using exactly one outcome from active, inactive

• CC(C)[C@H](N)C(=O)OCCOCn1cnc2c(=O)[nH]c(N)nc21 = inactive
• C[CH2][Hg][S]c1ccccc1C(=O)O = active
• CC(=O)O[C@@](C)(CCC=C(C)C)C1CC=C(C)CC1 (stereo not given in full) = inactive
• CN1C2CC3C[C@H]1C(O3)C2O (stereo not given in full) = inactive
• CC(C)CC1C(=O)N2CCC[C@H]2C2(O)O[C@](NC(=O)C3C=C4c5cccc6[nH]c(Br)c(c56)C[C@H]4N(C)C3)(C(C)C)C(=O)N12 (stereo not given in full) = inactive

Q: What did the test return for COC(=O)C1=COC(OC2OC(CO)C(O)C(O)C2O)C2C(C)CC(=O)C12O (stereo not given) ?
Ans: inactive

Q: Call for entry COC(=O)C1[C@H]2C[C@H]3c4[nH]c5ccccc5c4CCN3C[C@@H]2CC[C@@H]1O (stereo not given in full) :
Ans: inactive

Q: What is the recorded call for this compound in the test? COc1ccc2cc1Oc1ccc(cc1)C[C@H]1c3c(cc4c(c3Oc3cc5c(cc3OC)CCN(C)[C@@H]5C2)OCO4)CCN1C
Ans: inactive

Q: Hi team, can someone confirm the assay call for C=CC1=C(C(=O)O)N2C(=O)[C@@H](NC(=O)/C(=N/O)c3csc(N)n3)[C@H]2SC1 ?
Ans: inactive

Q: Check the results log: what was the call for CC(=O)OC1CC23CC24CCC(OC2OCC(O)C(O)C2O)C(C)(C)C4CCC3C2(C)CC3OC4(CC(C)C3C12C)OC(O)C1(C)OC41 (stereo not given) ?
Ans: inactive

Q: Could you kindly confirm the outcome this assay logged for C[N+](C)(C)CC(=O)[O-] ?
Ans: inactive

* * *

experiment: chemical genetic growth profiling, strain panel (AID 1159580);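 further: tested at 20 µM; growth read once vehicle control cultures reached saturation at 30 °C; 1 = growth at the plate median or of vehicle wells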; conditions: S. cerevisiae deletion strains, growth OD, strain NNK1, hits give low values
Hit rate of the full screen: of about 5,500 compounds, about 2,000 (36%) were called active. About 18% were inconclusive and are not listed. This is one part of the list.
Reported Property: normalized growth
Could you keep your reply to the number by itself?

* Cc1c(C(=O)N2CCCCC2)cc(-c2ccccc2)n1-c1ccccc1 | 0.962
* CC(C)(C)C1=NN(c2nc3ccc(Cl)cc3s2)C(=O)C1 | 0.106
* O=C(Nc1c(Br)c(C2CC2)nn1-c1ccccc1)C(Cl)(Cl)Cl | 0.944

# normalized growth of NCCCN=c1ccc2c3c1c(O)c1c(O)ccc(=O)c1c3[nH]n2CCNCCO = 0.978

Value of measured normalized growth for the entry Cn1cncc1S(=O)(=O)/C(C#N)=C/c1ccccc1Sc1ccc(Cl)cc1 : 0.967

The measured normalized growth associated with O=C(Nc1cc(Cl)cc(Cl)c1)Nc1cc(-c2cccs2)[nH]n1 reads 0.948

Lab note: measured normalized growth of Cc1cc(SCc2[nH]nc3oc(=O)cc(C)c23)c(Cl)cc1Cl was 0.985
